Reference for the values: patent US20210214435A1

- system.name: T1, cynomolgus monkey GPVI extracellular domain fused at its C-terminus to human IgG1 Fc (GPVI-Fc) (cynomolgus monkey; human)
- T1 construct: also called cyGPVI-2; cyGPVI
- assay.overview: Competition ELISA (MSD): cynomolgus GPVI-Fc preincubated with Fab, then on coated rat-tail collagen (competitor)
measure.name: IC50
Note to self: number, then unit, no commentary.

Below: 4 binders and their reported IC50.
binder: Reference Control Antibody RefFab #1 (humanized GPVI antibody of WO2011073954A2, SANOFI) (Fab, V domains shown, Cloned into mammalian Fab expression vectors; a glycine-serine linker (G4S)2 was added to the C-terminus of the Fab heavy chain) VH: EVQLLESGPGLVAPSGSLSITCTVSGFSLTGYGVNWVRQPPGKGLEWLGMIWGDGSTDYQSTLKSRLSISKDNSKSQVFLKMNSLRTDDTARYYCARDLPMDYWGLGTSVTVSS VL: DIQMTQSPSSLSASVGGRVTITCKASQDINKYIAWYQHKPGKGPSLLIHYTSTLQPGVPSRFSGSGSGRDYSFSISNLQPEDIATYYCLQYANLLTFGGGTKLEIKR
IC50: 8.8 nM

binder: Fab #4 comprising a modified heavy chain constant region (Fab, V domains shown, Human Fab from the Ylanthia library; produced in HKB11 cells; also called Fab #4 mod; HC) VH: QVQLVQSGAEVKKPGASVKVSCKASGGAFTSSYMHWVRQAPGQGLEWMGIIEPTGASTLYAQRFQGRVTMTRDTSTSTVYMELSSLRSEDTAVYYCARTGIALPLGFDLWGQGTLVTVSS VL: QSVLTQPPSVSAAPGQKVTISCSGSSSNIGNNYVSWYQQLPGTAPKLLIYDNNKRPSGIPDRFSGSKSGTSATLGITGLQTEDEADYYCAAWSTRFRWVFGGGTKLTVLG
IC50: 9.1 nM

binder: Fab #2 comprising a modified heavy chain constant region (Fab, V domains shown, Human Fab from the Ylanthia library; produced in HKB11 cells; also called Fab #2 mod; HC) VH: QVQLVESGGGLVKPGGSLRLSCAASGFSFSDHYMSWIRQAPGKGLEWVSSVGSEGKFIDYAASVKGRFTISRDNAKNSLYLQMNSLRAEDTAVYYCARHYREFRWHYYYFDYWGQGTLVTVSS VL: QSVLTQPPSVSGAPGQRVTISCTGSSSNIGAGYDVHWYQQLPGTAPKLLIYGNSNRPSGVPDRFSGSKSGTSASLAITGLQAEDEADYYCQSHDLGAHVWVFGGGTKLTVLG
IC50: 7.1 nM

binder: Fab #1 comprising a modified heavy chain constant region (Fab, V domains shown, Human Fab from the Ylanthia library; produced in HKB11 cells; also called Fab #1 mod; HC) VH: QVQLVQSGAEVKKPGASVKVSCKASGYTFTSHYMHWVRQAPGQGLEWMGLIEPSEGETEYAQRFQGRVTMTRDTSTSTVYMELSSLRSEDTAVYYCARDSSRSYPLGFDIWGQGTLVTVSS VL: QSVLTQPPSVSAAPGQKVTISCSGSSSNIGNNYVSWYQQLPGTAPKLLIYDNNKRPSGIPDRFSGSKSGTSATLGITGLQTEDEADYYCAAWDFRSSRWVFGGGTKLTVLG
IC50: 9.6 nM

**Q:** State the recorded IC50 for this entry: Fab #3 comprising a modified heavy chain constant region (Fab, V domains shown, Human Fab from the Ylanthia library; produced in HKB11 cells; also called Fab #3 mod; HC) VH: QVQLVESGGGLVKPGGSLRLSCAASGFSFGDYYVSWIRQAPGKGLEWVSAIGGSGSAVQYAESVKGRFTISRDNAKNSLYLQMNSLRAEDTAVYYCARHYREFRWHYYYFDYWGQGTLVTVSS VL: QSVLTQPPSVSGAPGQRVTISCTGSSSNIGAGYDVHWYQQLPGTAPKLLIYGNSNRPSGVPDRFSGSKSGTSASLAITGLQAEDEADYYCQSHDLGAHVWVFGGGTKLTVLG
**A:** 7.6 nM
